Provide the recorded Ki for the entries that follow.
Target: UniProt P30542
Test: Displacement of specific [3H]-CCPA binding at human A1R expressed in CHO cells
Conditions: [3H]-CCPA displacement, CHO cells; means ± SE; read-out: hA1R (Ki nM)
Text: Table 1 below reports the affinity and antagonist values of compounds KNV1-KNV13. In particular, the binding affinity is expressed in Ki and the antagonistic activity in IC50.

Query: What value of Ki has been recorded for this entry: `CCOC(=O)c1cc(C(=O)c2ccccc2[N+](=O)[O-])n2cc(C)cc(C)c12`
Result: > 30000 nM

Query: Thanks! And `COC(=O)c1c(C(=O)OC)c2c(C)cc(C)cn2c1C(=O)c1ccc(C)cc1` ?
Result: 2390 nM

Query: Thanks! And `CCOC(=O)c1cc(C(=O)c2cc(C(F)(F)F)cc(C(F)(F)F)c2)n2cc(C)cc(C)c12` ?
Result: > 30000 nM

Query: Thanks! And `COC(=O)c1c(C(=O)OC)c2c(C)cc(C)cn2c1C(=O)c1ccc(C#N)cc1` ?
Result: > 30000 nM

Query: Thanks! And `CCOC(=O)c1cc(C(=O)c2ccc(C#N)cc2)n2cc(C)cc(C)c12` ?
Result: > 30000 nM

Query: Thanks! And `CCOC(=O)c1cc(C(=O)c2ccc(OC)cc2)n2cc(C)cc(C)c12` ?
Result: > 30000 nM

Query: Thanks! And `CCOC(=O)c1cc(C(=O)c2ccc(Cl)cc2)n2cc(C)cc(C)c12` ?
Result: > 30000 nM

Query: Thanks! And `CCOC(=O)c1cc(C(=O)c2ccc(C)cc2)n2cc(C)cc(C)c12` ?
Result: > 30000 nM

Query: Thanks! And `COC(=O)c1c(C(=O)OC)c2c(C)cc(C)cn2c1C(=O)c1ccc(Br)cc1` ?
Result: 6980 nM

Query: Thanks! And `COC(=O)c1c(C(=O)OC)c2c(C)cc(C)cn2c1C(=O)c1ccc(Cl)cc1` ?
Result: 5610 nM

Query: Thanks! And `COC(=O)c1c(C(=O)OC)c2c(C)cc(C)cn2c1C(=O)c1ccc(OC)cc1` ?
Result: 1330 nM

====

target: human A2AR (Homo sapiens (Human)); assay: Displacement of specific [3H]-NECA binding at human A2AR expressed in CHO cells; details: [3H]-NECA displacement, CHO cells; means ± SE; read-out: hA2AR (Ki nM)
MEASUREMENT_TYPE: Ki

Query: What value of Ki has been recorded for this entry: `CCOC(=O)c1cc(C(=O)c2cc(C(F)(F)F)cc(C(F)(F)F)c2)n2cc(C)cc(C)c12`
Result: > 30000 nM

Query: Thanks! And `COC(=O)c1c(C(=O)OC)c2c(C)cc(C)cn2c1C(=O)c1ccc(C)cc1` ?
Result: 1610 nM

Query: Thanks! And `CCOC(=O)c1cc(C(=O)c2ccc(C#N)cc2)n2cc(C)cc(C)c12` ?
Result: > 30000 nM

Query: Thanks! And `CCOC(=O)c1cc(C(=O)c2ccc(C)cc2)n2cc(C)cc(C)c12` ?
Result: 4970 nM

Query: Thanks! And `CCOC(=O)c1cc(C(=O)c2ccccc2[N+](=O)[O-])n2cc(C)cc(C)c12` ?
Result: 7970 nM

Query: Thanks! And `CCOC(=O)c1cc(C(=O)c2ccc(OC)cc2)n2cc(C)cc(C)c12` ?
Result: > 30000 nM

Query: Thanks! And `CCOC(=O)c1cc(C(=O)c2ccc(Cl)cc2)n2cc(C)cc(C)c12` ?
Result: > 30000 nM

Query: Thanks! And `COC(=O)c1c(C(=O)OC)c2c(C)cc(C)cn2c1C(=O)c1ccc(Cl)cc1` ?
Result: 6880 nM

Query: Thanks! And `COC(=O)c1c(C(=O)OC)c2c(C)cc(C)cn2c1C(=O)c1ccc(C#N)cc1` ?
Result: > 30000 nM

Query: Thanks! And `COC(=O)c1c(C(=O)OC)c2c(C)cc(C)cn2c1C(=O)c1ccc(Br)cc1` ?
Result: 5540 nM

Query: Thanks! And `COC(=O)c1c(C(=O)OC)c2c(C)cc(C)cn2c1C(=O)c1ccc(OC)cc1` ?
Result: 4820 nM

====

target: hA3R (Homo sapiens (Human), UniProt P0DMS8); test: Counteracting NECA-induced decrease of cAMP accumulation (GloSensor cAMP assay) in CHO cells expressing hA3R; assay type: cell-based; conditions: counteracting NECA-induced decrease of cAMP accumulation, CHO cells expressing hA3R; means ± SE; read-out: hA2AR (IC50 nM) [footnote e: hA3R]
Sequence (P0DMS8 whole entry): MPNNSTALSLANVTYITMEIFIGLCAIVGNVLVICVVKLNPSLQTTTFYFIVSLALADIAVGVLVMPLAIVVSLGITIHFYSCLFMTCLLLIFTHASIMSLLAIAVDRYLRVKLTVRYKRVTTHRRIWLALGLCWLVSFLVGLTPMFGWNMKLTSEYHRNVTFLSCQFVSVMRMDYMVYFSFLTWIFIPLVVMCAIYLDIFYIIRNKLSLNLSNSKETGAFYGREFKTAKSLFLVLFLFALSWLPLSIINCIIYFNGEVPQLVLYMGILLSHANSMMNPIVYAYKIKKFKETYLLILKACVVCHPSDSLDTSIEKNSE
MEASUREMENT_TYPE: IC50
Don't forget the unit after the value.

Query: What value of IC50 has been recorded for this entry: `COC(=O)c1c(C(=O)OC)c2c(C)cc(C)cn2c1C(=O)c1ccc(Cl)cc1`
Result: 4210 nM

Query: Thanks! And `CCOC(=O)c1cc(C(=O)c2ccc(OC)cc2)n2cc(C)cc(C)c12` ?
Result: 865 nM

Query: Thanks! And `COC(=O)c1c(C(=O)OC)c2c(C)cc(C)cn2c1C(=O)c1ccc(Br)cc1` ?
Result: 9580 nM

Query: Thanks! And `CCOC(=O)c1cc(C(=O)c2ccc(C)cc2)n2cc(C)cc(C)c12` ?
Result: 4210 nM

Query: Thanks! And `CCOC(=O)c1cc(C(=O)c2ccccc2[N+](=O)[O-])n2cc(C)cc(C)c12` ?
Result: 3420 nM

Query: Thanks! And `COC(=O)c1c(C(=O)OC)c2c(C)cc(C)cn2c1C(=O)c1ccc(C#N)cc1` ?
Result: 41100 nM

Query: Thanks! And `COC(=O)c1c(C(=O)OC)c2c(C)cc(C)cn2c1C(=O)c1ccc(C)cc1` ?
Result: 11000 nM

Query: Thanks! And `CCOC(=O)c1cc(C(=O)c2cc(C(F)(F)F)cc(C(F)(F)F)c2)n2cc(C)cc(C)c12` ?
Result: 28000 nM

Query: Thanks! And `COC(=O)c1c(C(=O)OC)c2c(C)cc(C)cn2c1C(=O)c1ccc(OC)cc1` ?
Result: 7900 nM

Query: Thanks! And `CCOC(=O)c1cc(C(=O)c2ccc(C#N)cc2)n2cc(C)cc(C)c12` ?
Result: 25900 nM

Query: Thanks! And `CCOC(=O)c1cc(C(=O)c2ccc(Cl)cc2)n2cc(C)cc(C)c12` ?
Result: 1510 nM

====

biological target: human A3R (Homo sapiens (Human)); assay: Displacement of specific [3H]-HEMADO binding at human A3R expressed in CHO cells; details: [3H]-HEMADO displacement, CHO cells; means ± SE; read-out: hA3R (Ki nM)
Sequence (P0DMS8 whole entry): as above
Provide the recorded log10 Ki for the entries that follow.
Plainly stated, the numbers are log10 of Ki given in nM.

Query: What value of log10 Ki has been recorded for this entry: `CCOC(=O)c1cc(C(=O)c2ccc(Cl)cc2)n2cc(C)cc(C)c12`
Result: 2.77

Query: Thanks! And `COC(=O)c1c(C(=O)OC)c2c(C)cc(C)cn2c1C(=O)c1ccc(C)cc1` ?
Result: 3.49

Query: Thanks! And `COC(=O)c1c(C(=O)OC)c2c(C)cc(C)cn2c1C(=O)c1ccc(Cl)cc1` ?
Result: 2.97

Query: Thanks! And `CCOC(=O)c1cc(C(=O)c2ccc(C)cc2)n2cc(C)cc(C)c12` ?
Result: 3.03

Query: Thanks! And `COC(=O)c1c(C(=O)OC)c2c(C)cc(C)cn2c1C(=O)c1ccc(C#N)cc1` ?
Result: 4.08

Query: Thanks! And `CCOC(=O)c1cc(C(=O)c2ccccc2[N+](=O)[O-])n2cc(C)cc(C)c12` ?
Result: 2.97

Query: Thanks! And `CCOC(=O)c1cc(C(=O)c2cc(C(F)(F)F)cc(C(F)(F)F)c2)n2cc(C)cc(C)c12` ?
Result: 3.85

Query: Thanks! And `CCOC(=O)c1cc(C(=O)c2ccc(C#N)cc2)n2cc(C)cc(C)c12` ?
Result: 3.93

Query: Thanks! And `COC(=O)c1c(C(=O)OC)c2c(C)cc(C)cn2c1C(=O)c1ccc(Br)cc1` ?
Result: 3.33

Query: Thanks! And `CCOC(=O)c1cc(C(=O)c2ccc(OC)cc2)n2cc(C)cc(C)c12` ?
Result: 2.48

Query: Thanks! And `COC(=O)c1c(C(=O)OC)c2c(C)cc(C)cn2c1C(=O)c1ccc(OC)cc1` ?
Result: 3.28
